tested on: HCT-116 colon; assay: NCI-60 one-dose screen, 48 h; conditions: 10 µM unless noted
About 83,000 compounds went through this panel and 20% of them were active in at least one assay; those are over-represented in the sample as a whole. Calls of active or inactive are those of the source. How the source made its calls: active means growth percent below 10; inactive means the rest.
Log the outcome using a class from active, inactive

Some solved entries appear below for comparison.
molecule | system | label.value
N#C[Se]CCCNS(=O)(=O)C1CC2C=CC1C2 (stereo not drawn) | HCT-116 colon | active
CC(=O)O[C@H]1CCC2C3CCC4=C/C(=N/O)CCC4(C)C3CCC21C (stereo partly drawn) | HCT-116 colon | inactive

Ask | Returns: the outcome recorded for O=C1NC(=S)NC(=O)C1=Cc1ccccc1 in this assay.
Reply | inactive
